- EXPERIMENT_DESCRIPTION: Cytotoxicity against rat RBL2H3 cells by MTT assay
- Format: cell-based
- Design: concentration or dose not given beside the values
- CONDITION_DETAILS: rbl-2h3

COMPOUND | UNIT_OF_MEASURE | Activity
COC(=O)C(Cc1ccccc1)NC(=O)[C@]12CC[C@@H](C)[C@H](C)[C@H]1C1=CC[C@@H]3[C@@]4(C)CCC(=O)C(C)(C)[C@@H]4CC[C@@]3(C)[C@]1(C)CC2 (stereo not given in full) | % | 1.1
CCOC(=O)CNC(=O)[C@]12CC[C@@H](C)[C@H](C)[C@H]1C1=CC[C@@H]3[C@@]4(C)Cc5cnn(-c6ccccc6)c5C(C)(C)[C@@H]4CC[C@@]3(C)[C@]1(C)CC2 | % | 1.2
C[C@H]1[C@H](C)CC[C@]2(C(=O)NCCC3CCN(Cc4ccccc4)CC3)CC[C@]3(C)C(=CC[C@@H]4[C@@]5(C)Cc6nc7ccccc7nc6C(C)(C)[C@@H]5CC[C@]43C)[C@H]12 | % | 59.5
COC(=O)C(Cc1ccccc1)NC(=O)[C@]12CC[C@@H](C)[C@H](C)[C@H]1C1=CC[C@@H]3[C@@]4(C)C=C(C#N)C(=O)C(C)(C)[C@@H]4CC[C@@]3(C)[C@]1(C)CC2 (stereo not given in full) | % | 5.4
C[C@H]1[C@H](C)CC[C@]2(C(=O)NC3CCN(Cc4ccccc4)CC3)CC[C@]3(C)C(=CC[C@@H]4[C@@]5(C)Cc6nc7ccccc7nc6C(C)(C)[C@@H]5CC[C@]43C)[C@H]12 | % | 51.1
COC(=O)C(CC(C)C)NC(=O)[C@]12CC[C@@H](C)[C@H](C)[C@H]1C1=CC[C@@H]3[C@@]4(C)Cc5cnn(-c6ccc(F)cc6)c5C(C)(C)[C@@H]4CC[C@@]3(C)[C@]1(C)CC2 (stereo not given in full) | % | 1
C[C@H]1[C@H](C)CC[C@]2(C(=O)NCCCN3CCOCC3)CC[C@]3(C)C(=CC[C@@H]4[C@@]5(C)Cc6nc7ccccc7nc6C(C)(C)[C@@H]5CC[C@]43C)[C@H]12 | % | 31.3
C[C@H]1[C@H](C)CC[C@]2(C(=O)O)CC[C@]3(C)C(=CC[C@@H]4[C@@]5(C)Cc6c([nH]c7ccc(Cl)cc67)C(C)(C)[C@@H]5CC[C@]43C)[C@H]12 | % | 2.9
C[C@H]1[C@H](C)CC[C@]2(C(=O)O)CC[C@]3(C)C(=CC[C@@H]4[C@@]5(C)Cc6c([nH]c7ccc(Br)cc67)C(C)(C)[C@@H]5CC[C@]43C)[C@H]12 | % | 3.7
COC(=O)C(Cc1ccccc1)NC(=O)[C@]12CC[C@@H](C)[C@H](C)[C@H]1C1=CC[C@@H]3[C@@]4(C)Cc5cn[nH]c5C(C)(C)[C@@H]4CC[C@@]3(C)[C@]1(C)CC2 (stereo not given in full) | % | 1.9
C[C@H]1[C@H](C)CC[C@]2(C(=O)O)CC[C@]3(C)C(=CC[C@@H]4[C@@]5(C)Cc6cn[nH]c6C(C)(C)[C@@H]5CC[C@]43C)[C@H]12 | % | 0.1
COC(=O)C(Cc1ccccc1)NC(=O)[C@]12CC[C@@H](C)[C@H](C)[C@H]1C1=CC[C@@H]3[C@@]4(C)Cc5cncnc5C(C)(C)[C@@H]4CC[C@@]3(C)[C@]1(C)CC2 (stereo not given in full) | % | 2.6
COC(=O)C(Cc1ccccc1)NC(=O)[C@]12CC[C@@H](C)[C@H](C)[C@H]1C1=CC[C@@H]3[C@@]4(C)CC[C@H](OC(C)=O)C(C)(C)[C@@H]4CC[C@@]3(C)[C@]1(C)CC2 (stereo not given in full) | % | 12.4
CCOC(=O)CNC(=O)[C@]12CC[C@@H](C)[C@H](C)[C@H]1C1=CC[C@@H]3[C@@]4(C)Cc5cnoc5C(C)(C)[C@@H]4CC[C@@]3(C)[C@]1(C)CC2 | % | 11.1
CCOC(=O)CNC(=O)[C@]12CC[C@@H](C)[C@H](C)[C@H]1C1=CC[C@@H]3[C@@]4(C)CCC(=O)C(C)(C)[C@@H]4CC[C@@]3(C)[C@]1(C)CC2 | % | 1.7
C[C@H]1[C@H](C)CC[C@]2(C(=O)O)CC[C@]3(C)C(=CC[C@@H]4[C@@]5(C)Cc6nc7ccccc7nc6C(C)(C)[C@@H]5CC[C@]43C)[C@H]12 | % | 3.5
COC(=O)C(Cc1ccccc1)NC(=O)[C@]12CC[C@@H](C)[C@H](C)[C@H]1C1=CC[C@@H]3[C@@]4(C)Cc5c([nH]c6ccc(Br)cc56)C(C)(C)[C@@H]4CC[C@@]3(C)[C@]1(C)CC2 (stereo not given in full) | % | 16
C[C@H]1[C@H](C)CC[C@]2(C(=O)O)CC[C@]3(C)C(=CC[C@@H]4[C@@]5(C)Cc6nc7cc(Cl)c(Cl)cc7nc6C(C)(C)[C@@H]5CC[C@]43C)[C@H]12 | % | 2.2
C[C@H]1[C@H](C)CC[C@]2(C(=O)O)CC[C@]3(C)C(=CC[C@@H]4[C@@]5(C)Cc6cncnc6C(C)(C)[C@@H]5CC[C@]43C)[C@H]12 | % | 4.3
COC(=O)C(CC(C)C)NC(=O)[C@]12CC[C@@H](C)[C@H](C)[C@H]1C1=CC[C@@H]3[C@@]4(C)Cc5nc6cc(Cl)c(Cl)cc6nc5C(C)(C)[C@@H]4CC[C@@]3(C)[C@]1(C)CC2 (stereo not given in full) | % | 0.7

* * *

- EXPERIMENT_DESCRIPTION: Cytotoxicity against rat RBL2H3 cells by MTT assay
- Format: cell-based
- Parameters: concentration or dose not given beside the values
- CONDITION_DETAILS: rbl-2h3

MOLECULE | UNIT_OF_MEASURE | Activity
COC(=O)C(Cc1ccccc1)NC(=O)[C@]12CC[C@@H](C)[C@H](C)[C@H]1C1=CC[C@@H]3[C@@]4(C)Cc5nc6ccccc6nc5C(C)(C)[C@@H]4CC[C@@]3(C)[C@]1(C)CC2 (some centres undefined) | % | 12.4
C[C@H]1[C@H](C)CC[C@]2(C(=O)NCCN3CCCCC3)CC[C@]3(C)C(=CC[C@@H]4[C@@]5(C)Cc6nc7ccccc7nc6C(C)(C)[C@@H]5CC[C@]43C)[C@H]12 | % | 52.1
COC(=O)C(CC(C)C)NC(=O)[C@]12CC[C@@H](C)[C@H](C)[C@H]1C1=CC[C@@H]3[C@@]4(C)C=C(C#N)C(=O)C(C)(C)[C@@H]4CC[C@@]3(C)[C@]1(C)CC2 (some centres undefined) | % | 58.1
COC(=O)C(CC(C)C)NC(=O)[C@]12CC[C@@H](C)[C@H](C)[C@H]1C1=CC[C@@H]3[C@@]4(C)Cc5cn[nH]c5C(C)(C)[C@@H]4CC[C@@]3(C)[C@]1(C)CC2 (some centres undefined) | % | 0.9
CCOC(=O)CNC(=O)[C@]12CC[C@@H](C)[C@H](C)[C@H]1C1=CC[C@@H]3[C@@]4(C)Cc5cncnc5C(C)(C)[C@@H]4CC[C@@]3(C)[C@]1(C)CC2 | % | 1.9
COC(=O)C(CC(C)C)NC(=O)[C@]12CC[C@@H](C)[C@H](C)[C@H]1C1=CC[C@@H]3[C@@]4(C)Cc5cnn(-c6ccccc6)c5C(C)(C)[C@@H]4CC[C@@]3(C)[C@]1(C)CC2 (some centres undefined) | % | 1.8
COC(=O)C(CC(C)C)NC(=O)[C@]12CC[C@@H](C)[C@H](C)[C@H]1C1=CC[C@@H]3[C@@]4(C)Cc5c([nH]c6ccc(Cl)cc56)C(C)(C)[C@@H]4CC[C@@]3(C)[C@]1(C)CC2 (some centres undefined) | % | 15
COC(=O)C(CC(C)C)NC(=O)[C@]12CC[C@@H](C)[C@H](C)[C@H]1C1=CC[C@@H]3[C@@]4(C)Cc5nc6ccccc6nc5C(C)(C)[C@@H]4CC[C@@]3(C)[C@]1(C)CC2 (some centres undefined) | % | 0.5
CCOC(=O)CNC(=O)[C@]12CC[C@@H](C)[C@H](C)[C@H]1C1=CC[C@@H]3[C@@]4(C)Cc5nc6ccccc6nc5C(C)(C)[C@@H]4CC[C@@]3(C)[C@]1(C)CC2 | % | 1
CCOC(=O)CNC(=O)[C@]12CC[C@@H](C)[C@H](C)[C@H]1C1=CC[C@@H]3[C@@]4(C)Cc5cn[nH]c5C(C)(C)[C@@H]4CC[C@@]3(C)[C@]1(C)CC2 | % | 0.4
CCOC(=O)CNC(=O)[C@]12CC[C@@H](C)[C@H](C)[C@H]1C1=CC[C@@H]3[C@@]4(C)Cc5c([nH]c6ccc(Br)cc56)C(C)(C)[C@@H]4CC[C@@]3(C)[C@]1(C)CC2 | % | 1.7
CC(=O)O[C@H]1CC[C@]2(C)[C@H]3CC=C4[C@@H]5[C@@H](C)[C@H](C)CC[C@]5(C(=O)O)CC[C@@]4(C)[C@]3(C)CC[C@H]2C1(C)C | % | 4.1
COC(=O)C(Cc1ccccc1)NC(=O)[C@]12CC[C@@H](C)[C@H](C)[C@H]1C1=CC[C@@H]3[C@@]4(C)Cc5cnn(-c6ccc(F)cc6)c5C(C)(C)[C@@H]4CC[C@@]3(C)[C@]1(C)CC2 (some centres undefined) | % | 2
CSCC[C@@H](NC(=O)[C@]12CC[C@@H](C)[C@H](C)[C@H]1C1=CC[C@@H]3[C@@]4(C)Cc5nc6ccccc6nc5C(C)(C)[C@@H]4CC[C@@]3(C)[C@]1(C)CC2)C(=O)O | % | 6.2
CCOC(=O)CNC(=O)[C@]12CC[C@@H](C)[C@H](C)[C@H]1C1=CC[C@@H]3[C@@]4(C)Cc5c([nH]c6ccc(Cl)cc56)C(C)(C)[C@@H]4CC[C@@]3(C)[C@]1(C)CC2 | % | 14.7
C[C@H]1[C@H](C)CC[C@]2(C(=O)O)CC[C@]3(C)C(=CC[C@@H]4[C@@]5(C)Cc6cnn(-c7ccccc7)c6C(C)(C)[C@@H]5CC[C@]43C)[C@H]12 | % | 2.4
CCOC(=O)CNC(=O)[C@]12CC[C@@H](C)[C@H](C)[C@H]1C1=CC[C@@H]3[C@@]4(C)CC[C@H](OC(C)=O)C(C)(C)[C@@H]4CC[C@@]3(C)[C@]1(C)CC2 | % | 1.6
COC(=O)C(Cc1ccccc1)NC(=O)[C@]12CC[C@@H](C)[C@H](C)[C@H]1C1=CC[C@@H]3[C@@]4(C)Cc5c([nH]c6ccc(Cl)cc56)C(C)(C)[C@@H]4CC[C@@]3(C)[C@]1(C)CC2 (some centres undefined) | % | 1.6
COC(=O)C(CC(C)C)NC(=O)[C@]12CC[C@@H](C)[C@H](C)[C@H]1C1=CC[C@@H]3[C@@]4(C)Cc5cncnc5C(C)(C)[C@@H]4CC[C@@]3(C)[C@]1(C)CC2 (some centres undefined) | % | 10.3
